- SYSTEM_UNDER_TEST: SALL4 ZFC4 G921D (HT-SELEX) (Mus musculus, UniProt Q8BX22 870-940, G921D)
- Sequence: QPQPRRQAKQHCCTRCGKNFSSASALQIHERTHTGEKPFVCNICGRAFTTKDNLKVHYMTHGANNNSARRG
- EXPERIMENT_SUMMARY: HT-SELEX; high values mean tight binding
- RECORDED_CONDITIONS: protein: recombinant; vector His6-GST; dsDNA, one strand shown
Decision: binding signal >= 0.6 fold-change vs cycle 0 yields rule met, all other cases yield rule not met.

>>> label_value("CTATAA")
"rule met"
>>> label_value("AGGGAC")
"rule met"
>>> label_value("CATTAC")
"rule met"
>>> label_value("CCAACG")
"rule not met"
>>> label_value("ACTCGC")
"rule not met"
>>> label_value("CAATGC")
"rule met"
>>> label_value("AGAAAG")
"rule met"
>>> label_value("GTCCAC")
"rule not met"
>>> label_value("ACGCAT")
"rule met"
>>> label_value("CTAAGA")
"rule met"
>>> label_value("TGCGAA")
"rule met"
>>> label_value("TCACGA")
"rule met"
>>> label_value("ACGATA")
"rule met"
>>> label_value("CGCAGC")
"rule not met"
>>> label_value("GAGGGC")
"rule not met"

###

- SYSTEM_UNDER_TEST: SALL4 ZFC4 G921D (HT-SELEX) (Mus musculus, UniProt Q8BX22 870-940, G921D)
- Sequence: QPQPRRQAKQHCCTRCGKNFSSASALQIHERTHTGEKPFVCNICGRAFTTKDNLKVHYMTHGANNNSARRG
- EXPERIMENT_SUMMARY: HT-SELEX; high values mean tight binding
- RECORDED_CONDITIONS: protein: recombinant; vector His6-GST; dsDNA, one strand shown
// reported binding signal for each item listed
MEASUREMENT_KIND: binding signal (fold-change vs cycle 0)

>>> val("ACCGCT")
0.44
>>> val("ACCCAA")
0.873
>>> val("ACCAGT")
0.994
>>> val("CTAGCA")
0.86
>>> val("AAAACC")
1.1
>>> val("CGTGTA")
0.812
>>> val("ATCGAA")
1.2
>>> val("GACCAA")
0.845
>>> val("AGCAAG")
0.888
>>> val("AAGCCC")
0.475
>>> val("ACAAAA")
1.5
>>> val("TAGAGA")
1.48
>>> val("GAGTAC")
1.04
>>> val("CGGGAG")
0.381
>>> val("GCCCCC")
0.213
>>> val("CCCTTA")
1.02
>>> val("CTGGCA")
0.413
>>> val("AAATCC")
1.24
>>> val("AGACTC")
1.01
>>> val("GGACGA")
0.498
>>> val("CTATGA")
1.42
>>> val("AAATGG")
1.16
>>> val("CACTCC")
0.684
>>> val("CTGCGA")
0.404
>>> val("ATCGCG")
0.363
>>> val("ATCTAG")
1.41
>>> val("ATCTTC")
1.46
>>> val("CCCCAA")
0.561

###

// reported binding signal for each item listed
- SYSTEM_UNDER_TEST: SALL4 ZFC4 G921D (HT-SELEX) (Mus musculus, UniProt Q8BX22 870-940, G921D)
- Sequence: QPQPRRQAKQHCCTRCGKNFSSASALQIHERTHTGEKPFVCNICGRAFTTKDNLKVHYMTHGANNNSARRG
- EXPERIMENT_SUMMARY: HT-SELEX; high values mean tight binding
- RECORDED_CONDITIONS: protein: recombinant; vector His6-GST; dsDNA, one strand shown
MEASUREMENT_KIND: binding signal (fold-change vs cycle 0)

>>> val("CCCGAC")
0.308
>>> val("GATCCA")
0.996
>>> val("ACTATG")
1.34
>>> val("GGTGCA")
0.479
>>> val("ACCCGA")
0.576
>>> val("GCACAA")
0.634
>>> val("GGGTTA")
0.958
>>> val("CCTTGC")
0.554
>>> val("CTAGGA")
0.975
>>> val("AGGAGC")
0.595
>>> val("TACCCA")
0.886
>>> val("AACCTC")
1.02
>>> val("GGCGGA")
0.238
>>> val("GAAGGA")
1.08
>>> val("AGTCTG")
0.92
>>> val("AAGACA")
1.35
>>> val("AATGTA")
1.76
>>> val("ACTACT")
1.43
>>> val("AACATG")
1.32
>>> val("ACGGGG")
0.37
>>> val("GTTTAA")
1.63
>>> val("AAGCAG")
0.85
>>> val("CACGCG")
0.214
>>> val("CAGAAA")
1.15
>>> val("GACCAC")
0.55
>>> val("ACAGTA")
1.37
>>> val("CAGTCC")
0.63
>>> val("CGTCGA")
0.423
>>> val("ACGATC")
0.907
>>> val("GGAACC")
0.622
>>> val("GGAAAC")
0.91
>>> val("GTGTCA")
0.881
>>> val("CGGAAG")
0.707
>>> val("TAGATA")
1.84
>>> val("AAACCG")
0.705
>>> val("ATAGTC")
1.33
>>> val("GGGTAA")
0.918
>>> val("GTCGAA")
0.7
>>> val("CCGTGC")
0.251
>>> val("CTGTTA")
1.39
>>> val("TTAAAA")
1.97
>>> val("CGGACC")
0.315
>>> val("CAGGAG")
0.676
>>> val("AGATCG")
0.926
>>> val("GATGTA")
1.34
>>> val("CATAGA")
1.34
>>> val("GACGGC")
0.211
>>> val("TGTGAA")
1.29
>>> val("TTCCAA")
1.29
>>> val("CTCGAG")
0.638
>>> val("ATCGGA")
0.928
>>> val("AAGGCC")
0.435
>>> val("CGTAGA")
0.786
>>> val("ATACGC")
0.66
>>> val("CTGGCC")
0.255
>>> val("GGAAAA")
1.12
>>> val("ATAGCA")
1.23
>>> val("AATGGT")
1.32
>>> val("CGCCCA")
0.227
>>> val("GGTAAC")
1.06
>>> val("ACCAGA")
0.947
>>> val("ACGACT")
0.813
>>> val("ATGAGC")
0.836
>>> val("CAGCGC")
0.177
>>> val("CTCAAG")
1.04
>>> val("GTGAGA")
0.986
>>> val("TTACAA")
1.81
>>> val("ACGAGT")
0.922
>>> val("CTGCAG")
0.467
>>> val("AGATAT")
1.86
>>> val("CAGGAA")
0.918
>>> val("CGTAAC")
0.922
>>> val("GACGCA")
0.386
